# Test system: SK-MEL-5 melanoma
# Experimental protocol: NCI tumour cell line growth inhibition, 48 h
Listing: TGI of selected molecules

Below are worked cases with known answers.
COc1cc(C2(O)c3ccccc3C3=NCCN32)cc(OC)c1OC (stereo not given)	> 100 µM
O=C(Cc1ccccc1)NNc1nc(NNC(=O)c2ccncc2)nc(Nc2ccc(Cl)cc2)n1	> 10 µM
C/C(=N/NC(=S)NCCc1ccccn1)c1cnccn1	> 100 µM
CC(C)CCCC(C)[C@H]1CC[C@H]2[C@@H]3CC[C@H]4C[C@@H](CCC=C(c5cc(Cl)c(O)c(C(=O)O)c5)c5cc(Cl)c(O)c(C(=O)O)c5)CC[C@]4(C)[C@H]3CC[C@]12C (stereo not given in full) (tested in a mixture with another compound)	> 50 µM

Please find the next molecule below.
response.value for COc1cc(/C=C2\CC3C4CC[C@H]5C[C@@H](O)CC[C@]5(C)C4CC[C@]3(C)C2=O)cc(OC)c1OC (stereo not given in full) (field: TGI) = 22 µM

---

# System: SR leukemia
# Experimental protocol: NCI tumour cell line growth inhibition, 48 h
Below, each of the compounds is paired with its reported TGI value.

Record "CN(C)c1ccc(O)c2c1C[C@H]1C[C@H]3[C@H](N(C)C)C(=O)C(C(N)=O)=C(O)[C@@]3(O)C(=O)C1=C2O" . Reported TGI: 22.3 µM

The measured TGI associated with CCCN(CCC)C(=O)[C@H](CC)[C@@H]1CC[C@@H](C)[C@@H]([C@H](C)[C@@H](O)[C@@H](C)C(=O)[C@H](CC)C2O[C@]3(C=C[C@@H](O)[C@]4(CC[C@@](C)([C@H]5CC[C@](O)(CC)[C@H](C)O5)O4)O3)[C@H](C)C[C@@H]2C)O1 (some centres not stated) reads 7.35 µM

The compound identified as COc1ccc(NS(=O)c2ccc(OC)cc2)cc1 (configuration not stated) registered its TGI at > 100 µM

Recorded result, "N#CN1CCC=C(c2cc3ccccc3[nH]2)C1" , TGI: > 448 µM

"CN(C)/C=C/c1nnnn1-c1ccc(I)cc1" yielded TGI of 41.6 µM

Please fill in: TGI reported for "COc1cc(-c2oc3c(OC)c(O)c(OC)c(O)c3c(=O)c2OC)ccc1O" = > 100 µM

---

The molecules listed here are annotated with their TGI.
# System: OVCAR-8 ovarian
# Experimental protocol: NCI tumour cell line growth inhibition, 48 h

COc1cc(/C=C2/C(=O)NC(Cc3cc(OC)c(OC)c(C)c3OC)C(=O)N2Cc2ccccc2)c(OC)c(C)c1OC (stereo not given)	> 100 µM
CS(=O)(=O)Nc1cc(-c2ccc3ncnc(Nc4ccc5c(cnn5Cc5ccccc5F)c4)c3c2)cnc1Cl	> 100 µM
Cc1cc(=O)oc2cc(OCc3nc4ccccc4c(=O)[nH]3)ccc12	> 100 µM
[C-]#[N+]C1(C(=O)OCC)CC1	> 100 µM

Given the molecule "O=C(CCCCCCC(=O)Nc1ccc2c(c1)/C(=C/c1ccc[nH]1)C(=O)N2)NO" and test system OVCAR-8 ovarian, the measured TGI is > 89.4 µM

---

// values below are reported TGI
# System: COLO 205 colon
# Experimental protocol: NCI tumour cell line growth inhibition, 48 h

N/C(COc1ccc(Cl)cc1)=N\NC(=O)c1ccncc1	> 100 µM

Please fill in: TGI reported for "N#Cc1nc2cc(F)c(F)cc2nc1-c1ccc(Cl)cc1" = > 100 µM

For this molecule ( "O=P1(O)c2ccccc2Nc2cc(C(F)(F)F)ccc21" ), measured TGI is > 100 µM

Note to self: TGI recorded for "Clc1ccc2c(c1)-c1ccccc1C1=NCCN12" was 3.54 µM

Lookup result for "O=[N+]([O-])/C=C/COCc1cc2c(cc1Br)OCO2" ; measured TGI: 43.6 µM

Field TGI (entry "NS(=O)(=O)c1nnc(/N=C(/CCC(=O)O)C(=O)O)s1" ) reads > 100 µM
